Field: IC50. Provide a value for each of the molecules that follow.

Note to self: IC50 of Cc1sc(N(C)/N=C/c2ccccc2C(=O)O)nc1-c1ccccc1Cl with Dihydroorotate dehydrogenase (quinone), mitochondrial (Homo sapiens, UniProt Q02127) was 0.0355 µM

Note to self: IC50 of O=C(OCCc1ccccc1)c1ccccc1/C=N/Nc1nc(-c2ccccc2Cl)cs1 with Dihydroorotate dehydrogenase (quinone), mitochondrial (Homo sapiens, UniProt Q02127) was > 50 µM

Note to self: IC50 of CN(/N=C/c1ccccc1C(=O)OCCc1ccccc1)c1nc(-c2ccccc2Cl)cs1 with Dihydroorotate dehydrogenase (quinone), mitochondrial (Homo sapiens, UniProt Q02127) was > 50 µM
